system: NCI/ADR; assay: inhibition of tumor cell proliferation, NCI/ADR; format: cell-based; settings: Homo sapiens, NCI/ADR-RES, read-out: Tumor Cell Line (IC50, nM) NCI/ADR
Readings of IC50 for the listed compounds
experimental-readout: IC50

compound="CCC(=C/[C@H](C)C/C=C/C(C)=C/[C@@H](C)C(=O)[C@@H](C)[C@H](O)[C@@H](C)C/C(C)=C/C(=O)OCC(=O)OC)/C=C/[C@@H]1OC(=O)C=C[C@@H]1C [Compound 2]" measurement_target=NCI/ADR experimental_readout=IC50 observed="5.2 nM"
compound="CCC(=C/[C@H](C)C/C=C/C(C)=C/[C@@H](C)C(=O)[C@@H](C)[C@H](O)[C@@H](C)C/C(C)=C/C(=O)OCc1ccccc1)/C=C/[C@@H]1OC(=O)C=C[C@@H]1C [Compound 1]" measurement_target=NCI/ADR experimental_readout=IC50 observed="38 nM"
compound="CCC(=C/[C@H](C)C/C=C/C(C)=C/[C@@H](C)C(=O)[C@@H](C)[C@H](O)[C@@H](C)C/C(C)=C/C(=O)OCc1cccc2cccnc12)/C=C/[C@@H]1OC(=O)C=C[C@@H]1C [Compound 3]" measurement_target=NCI/ADR experimental_readout=IC50 observed="270 nM"

Where these numbers come from: patent US8003687B2
